For each of the sequences below, state its Tm.
test: melting temperature; fluorescence melt of hairpins on a sequencing array, two-state fit, raised by 9.35 °C to match UV melts; settings: sodium 0.088 M
Answers are plain numbers, in °C.

Illustrative cases are given below, each with its answer.
>  <chain_sequence>
TCGCAGAAATGCGA (((((....)))))

>  <Tm [°C]>
54.4

$$$$
>  <chain_sequence>
GCCGTGCGAAAGCACAGC ((.((((....)))).))

>  <Tm [°C]>
61.2

$$$$
>  <chain_sequence>
GGAATCCGAAAGGAATCC (((.(((....))).)))

>  <Tm [°C]>
48.7

$$$$
>  <chain_sequence>
GATCATACAATGATC ((((((...))))))

>  <Tm [°C]>
48.4

$$$$
>  <chain_sequence>
GATCCCGAGGGGGATC ((((((....))))))

>  <Tm [°C]>
59.7

$$$$
>  <chain_sequence>
GTCCGGGGAAACCCAGAC (((.(((....))).)))

>  <Tm [°C]>
42.8

$$$$
>  <chain_sequence>
GAAATGGCGAAAGCCTTC (((..(((....))))))

>  <Tm [°C]>
23

$$$$
>  <chain_sequence>
GATCAGCGCCTGATC ((((((...))))))

>  <Tm [°C]>
48.7

$$$$

I would be grateful if you could provide Tm for each of the following entries.
1. GCCGGGCGAAAGCGAGGC (((..((....))..)))
2. GCTCTCGAAAGAGGGAGC ((((((....)))..)))
3. GCCAGTGGAAACGTTGGC ((((..(....)..))))

1: 66.1; 2: 45.5; 3: 48.2

Value source: the array DNA melting data of Ke et al. (doi:10.1101/2024.01.08.574731)
